# Tested on: Pseudomonas aeruginosa
# protocol_details: Antimicrobial activity against extended spectrum beta-lactamases-producing Pseudomonas aeruginosa 10-15 after 18-24 hrs by two-fold serial dilution method
# Type: functional
assay_readout: MIC (µg/mL)
All answers are understood in µg/mL, so give the number only.

// known answers, use as guide
| compound | number |
| --- | --- |
| COc1cc(CO/N=C2\CN(c3nc4c(cc3F)c(=O)c(C(=O)O)cn4C3CC3)CC2CN)cc(OC)c1OC.CS(=O)(=O)O (racemic) | 8 |
| COc1ccc(CO/N=C2\CN(c3nc4c(cc3F)c(=O)c(C(=O)O)cn4C3CC3)CC2CN)c(OC)c1OC.CS(=O)(=O)O (racemic) | 16 |
| COc1ccc(CO/N=C2\CN(c3nc4c(cc3F)c(=O)c(C(=O)O)cn4C3CC3)CC2CN)cc1OC.CS(=O)(=O)O (racemic) | 1 |
| CS(=O)(=O)O.NCC1CN(c2nc3c(cc2F)c(=O)c(C(=O)O)cn3C2CC2)C/C1=N\OCc1cc2c(cc1[N+](=O)[O-])OCO2 (racemic) | 8 |

Enquiry: Give its MIC value. Item: CO/N=C1\CN(c2nc3c(cc2F)c(=O)c(C(=O)O)cn3C2CC2)CC1CN (configuration not stated) [GEMIFLOXACIN]
Return: 1

Enquiry: // returns reported MIC for input COc1cc(CO/N=C2\CN(c3nc4c(cc3F)c(=O)c(C(=O)O)cn4C3CC3)CC2CN)ccc1OC(F)F.CS(=O)(=O)O (racemic)
Return: 32

====

# Tested on: Staphylococcus aureus
# protocol_details: Antimicrobial activity against Staphylococcus aureus ATCC […] after 18-24 hrs by two-fold serial dilution method
# Format: functional
# key: entry, value: MIC
Reply numerically in µg/mL, unit not repeated.

| compound | test_system | units_of_measure | MIC |
| --- | --- | --- | --- |
| COc1ccc(CO/N=C2\CN(c3nc4c(cc3F)c(=O)c(C(=O)O)cn4C3CC3)CC2CN)cc1OC.CS(=O)(=O)O (racemic) | Staphylococcus aureus | µg/mL | 0.03 |

Enquiry: Requested read-out: MIC. Entry: COc1cc(F)c(CO/N=C2\CN(c3nc4c(cc3F)c(=O)c(C(=O)O)cn4C3CC3)CC2CN)cc1OC.CS(=O)(=O)O (racemic)
Return: 0.03

Enquiry: Recorded MIC of COc1cccc(OC)c1CO/N=C1\CN(c2nc3c(cc2F)c(=O)c(C(=O)O)cn3C2CC2)CC1CN.CS(=O)(=O)O (racemic) , please.
Return: 0.03

Enquiry: What value of MIC has been recorded for this entry: COc1cc(CO/N=C2\CN(c3nc4c(cc3F)c(=O)c(C(=O)O)cn4C3CC3)CC2CN)ccc1OC(F)F.CS(=O)(=O)O (racemic)
Return: 0.008

Enquiry: Request the reported MIC associated with COc1ccc(CO/N=C2\CN(c3nc4c(cc3F)c(=O)c(C(=O)O)cn4C3CC3)CC2CN)c([N+](=O)[O-])c1OC.CS(=O)(=O)O (racemic)
Return: 0.06

Enquiry: # get_value(readout='MIC', item= COc1ccc(CO/N=C2\CN(c3nc4c(cc3F)c(=O)c(C(=O)O)cn4C3CC3)CC2CN)c(OC)c1.CS(=O)(=O)O (racemic) )
Return: 0.06
